Biological target: UniProt P49682
Sequence (P49682 whole entry): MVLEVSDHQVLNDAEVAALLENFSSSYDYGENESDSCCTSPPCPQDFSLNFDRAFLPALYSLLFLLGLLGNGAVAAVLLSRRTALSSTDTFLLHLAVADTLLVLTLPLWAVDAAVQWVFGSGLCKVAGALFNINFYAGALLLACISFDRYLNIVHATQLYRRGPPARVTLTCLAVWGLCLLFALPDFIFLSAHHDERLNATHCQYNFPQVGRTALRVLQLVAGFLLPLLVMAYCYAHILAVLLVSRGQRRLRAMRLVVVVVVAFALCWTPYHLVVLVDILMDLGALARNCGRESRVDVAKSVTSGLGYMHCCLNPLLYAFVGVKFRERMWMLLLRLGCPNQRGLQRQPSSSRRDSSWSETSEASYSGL
Ok so here's the combined literature set: pIC50 for UniProt P49682.
Please treat pIC50 as minus the base-10 logarithm of the molar concentration.

Here's what some known entries look like.
COMPOUND | ENDPOINT VALUE
CC[C@H]1CN(c2ncc(-c3ncc[nH]3)nc2C)[C@H](C)CN1C1CCN(C(=O)c2ccc(Cl)cc2)CC1 | 8.80
COc1cc(CN(C[C@H]2CC[C@H](C(=O)O)CC2)C(C)c2ccc3c(c2)CCO3)ccc1CCCN1C(=O)CCC1=O (stereo partly specified) | 7.09
CCNc1nnc(-c2cnc(N3CCN(C4CCN(C(=O)c5ccc(Cl)nc5N)CC4)[C@@H](CC)C3)c(C(F)(F)F)n2)o1 | 8.82

Prompt: Give the measured pIC50 for CCN(Cc1ccc(OCCN2C(=O)CCC2=O)c(OC)c1)C(c1ccc(Cl)cc1)C(C)(C)C(=O)O (stereo unspecified)
Response: 6.53

Prompt: Tell us which pIC50 value is on record for CN1CC(=O)N(CCOc2ccc(CN(C[C@H]3CC[C@H](C(=O)O)CC3)C3CCc4cc(Cl)ccc43)cc2Cl)C1=O (stereo partly specified)
Response: 5.92

Prompt: Please list pIC50 recorded for the compound `CC[C@H]1CN(c2nc(N)c(-c3nnc(NCCO)o3)nc2Cl)CCN1C1CCN(C(=O)c2ccc(Cl)nc2N)CC1`
Response: 8.41

Prompt: Using the record for COc1cc(CN(CC2CCCC2)C(CC(=O)O)c2ccc(Cl)cc2)ccc1CCCN1C(=O)CCC1=O (stereo unspecified) , state its measured pIC50.
Response: 6.75

Prompt: Identify the reported pIC50 for the following entry. `CCNc1nnc(-c2cnc(N3C[C@H](CC)N(C4CCN(C(=O)c5ccc(Cl)cc5)CC4)C[C@H]3C)c(C(F)(F)F)n2)o1`
Response: 8.74

Prompt: Note pIC50 for the compound shown: `CC[C@H]1CN(c2ncc(-c3nnco3)cc2Cl)CCN1C1CCN(Cc2ccc(Cl)cc2F)CC1`
Response: 8.85

Prompt: Kindly indicate its recorded pIC50. Item: `CC[C@H]1CN(c2nc(N)c(-c3nnc(NS(C)(=O)=O)o3)nc2Cl)CCN1C1CCN(C(=O)c2ccc(Cl)nc2N)CC1`
Response: 5.64

Prompt: Note pIC50 for the compound shown: `CCNc1nnc(-c2cnc(N3CCN(C4CCN(C(=O)c5ccc(Cl)nc5N)CC4)[C@@H](CC)C3)c(CC)n2)o1`
Response: 8.42

Prompt: Please report pIC50 for the following compound: `CC[C@H]1CN(c2ncc(-c3nnn[nH]3)cc2Cl)CCN1C1CCN(Cc2ccc(Cl)cc2F)CC1`
Response: 5.86

Prompt: Complete the entry with pIC50 for `CC[C@H]1CN(c2ncc(-c3ncc[nH]3)cc2Cl)CCN1C1CCN(Cc2ccc(Cl)cc2F)CC1`
Response: 9.52

Prompt: Fill in pIC50 for record `CCNc1nnc(-c2cnc(N3CCN(C4CCN(C(=O)c5ccc(Cl)cc5)CC4)[C@@H](CC)C3)c(C)n2)o1`
Response: 8.92

Prompt: Determine from records and report pIC50 for O=C(O)CC(c1ccc(Cl)c(Cl)c1)N(Cc1ccc(OCCN2C(=O)CCC2=O)c(F)c1)CC1CCCCC1 (stereo unspecified)
Response: 6.36

Prompt: Answer with the recorded pIC50 for the compound listed here: Cc1cc(CN(C[C@H]2CC[C@H](C(=O)O)CC2)C(C)c2ccc(Cl)c(Cl)c2)ccc1OCCN1C(=O)CN(C)C1=O (stereo partly specified)
Response: 6.37
